# Assayed Target: human JAK1 (a.a. 837-1142) (Homo sapiens, UniProt P23458)
# Construct: human JAK1 (a.a. 837-1142); His tag (N); made in house; host or cells: insect cells (baculovirus)
# Sequence (P23458 849-1154): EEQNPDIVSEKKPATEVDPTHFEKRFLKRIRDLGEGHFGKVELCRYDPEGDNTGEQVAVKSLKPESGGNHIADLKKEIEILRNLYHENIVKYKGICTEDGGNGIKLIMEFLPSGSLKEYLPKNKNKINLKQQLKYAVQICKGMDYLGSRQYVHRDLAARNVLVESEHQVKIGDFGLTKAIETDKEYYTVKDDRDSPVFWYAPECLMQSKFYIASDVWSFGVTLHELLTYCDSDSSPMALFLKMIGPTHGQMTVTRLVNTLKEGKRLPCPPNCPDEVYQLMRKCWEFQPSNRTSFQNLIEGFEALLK
# Method Notes: In vitro JAK kinase assay (HTRF, phosphorylation of a biotinylated peptide), JAK1
# Assay type: biochemical
# Experimental Parameters: Assay Conditions 1 mM ATP
# Method: Compounds herein were tested for inhibitory activity of JAK targets according to the following in vitro assay described in Park et al., Analytical Biochemistry 1999, 269, 94-104. […] The phosphorylated peptide was detected by homogenous time resolved fluorescence (HTRF). […] Binding to the Europium labeled antibody took place for 40 min and HTRF signal was measured on a Fusion plate reader (Perkin Elmer, Boston, Mass.). […]
Where a name gives a salt, the structure may show the parent alone.
Measured Endpoint: IC50

1. N#CC[C@@H]([C@H]1CCN(c2ccc(F)c(F)n2)C1)n1cc(-c2ncnc3[nH]ccc23)cn1.O=C(O)C(F)(F)F [Example 89, trifluoroacetate]    < 50 nM
2. N#Cc1cccc(N2CC[C@H](C(CF)n3cc(-c4ncnc5[nH]ccc45)cn3)C2)c1C#N (stereo partly drawn) [Example 121, trifluoroacetate]    < 50 nM
3. N#CC[C@@H]([C@H]1CCN(c2cccc(Br)c2C#N)C1)n1cc(-c2ncnc3[nH]ccc23)cn1 [Example 57, trifluoroacetate salt]    < 50 nM
4. N#CCC(C1CCN(c2nc3cncnc3o2)C1)n1cc(-c2ncnc3[nH]ccc23)cn1 (single isomer, unassigned) [Example 18]    50 to 100 nM
5. N#CC[C@@H]([C@H]1CCN(c2c(F)cc(F)c(F)c2C#N)C1)n1cc(-c2ncnc3[nH]ccc23)cn1 [Example 61, trifluoroacetate salt]    < 50 nM
6. Cc1cnc(N2CC[C@H]([C@H](CC#N)n3cc(-c4ncnc5[nH]ccc45)cn3)C2)c(C#N)c1 [Example 109, trifluoroacetate salt]    < 50 nM
7. N#CCC(C1CCN(c2nccc(C#N)c2C#N)C1)n1cc(-c2ncnc3[nH]ccc23)cn1 (racemic) [Example 39]    < 50 nM
8. N#CC[C@@H]([C@H]1CCN(c2nc(Cl)c(N)cc2F)C1)n1cc(-c2ncnc3[nH]ccc23)cn1 [Example 91A, bis(trifluoroacetate)]    < 50 nM
9. O=S1(=O)CCc2ccc(N3CC[C@H](C(CF)n4cc(-c5ncnc6[nH]ccc56)cn4)C3)nc21 (stereo partly drawn) [Example 119, trifluoroacetate]    < 50 nM
10. CS(=O)(=O)c1cc(N2CCC(C(CC#N)n3cc(-c4ncnc5[nH]ccc45)cn3)C2)ccn1 (single isomer, unassigned) [Example 27]    < 50 nM
11. CS(=O)(=O)c1nc(N2CC[C@H]([C@H](CC#N)n3cc(-c4ncnc5[nH]ccc45)cn3)C2)c(F)cc1F [Example 130, trifluoroacetate]    < 50 nM
12. N#CC[C@@H]([C@H]1CCN(c2cccc(C#N)c2C#N)C1)n1cc(-c2ncnc3[nH]ccc23)cn1 [Example 49, trifluoroacetate]    < 50 nM

* * *

# Assayed Target: Jak2 (a.a. 828-1132) (Homo sapiens)
# Construct: Jak2 (a.a. 828-1132); His tag (N); made in house; host or cells: insect cells (baculovirus)
# Sequence (O60674 828-1132): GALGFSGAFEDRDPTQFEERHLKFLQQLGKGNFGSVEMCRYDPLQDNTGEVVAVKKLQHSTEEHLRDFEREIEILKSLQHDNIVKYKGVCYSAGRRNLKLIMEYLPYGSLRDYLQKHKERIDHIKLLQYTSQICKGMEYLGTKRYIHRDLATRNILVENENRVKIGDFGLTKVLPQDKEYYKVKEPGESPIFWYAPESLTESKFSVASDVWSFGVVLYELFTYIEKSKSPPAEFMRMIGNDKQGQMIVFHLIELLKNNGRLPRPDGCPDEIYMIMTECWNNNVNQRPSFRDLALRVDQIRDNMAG
# Method Notes: In vitro JAK kinase assay (HTRF, phosphorylation of a biotinylated peptide), JAK2, reported as JAK2/JAK1 ratio
# Format: biochemical
# Experimental Parameters: Assay Conditions 1 mM ATP
Structures can show the parent of a compound that is named as a salt.
Recorded JAK2/JAK1 IC50 ratio, one value per entry.
Measured Endpoint: JAK2/JAK1 IC50 ratio

1. CCS(=O)(=O)c1ccc(F)c(N2CC[C@H]([C@H](CC#N)n3cc(-c4ncnc5[nH]ccc45)cn3)C2)n1 [Example 93, trifluoroacetate]    5.3
2. N#CCC(C1CCN(c2scnc2C#N)C1)n1ccc(-c2ncnc3[nH]ccc23)c1 (racemic) [Example 149-2]    4.5
3. COCc1c(F)cnc(N2CC[C@H]([C@H](CC#N)n3cc(-c4ncnc5[nH]ccc45)cn3)C2)c1F [Example 101, trifluoroacetate]    4.0
4. N#CC[C@@H]([C@H]1CCN(c2ncc(C#N)cc2F)C1)n1cc(-c2ncnc3[nH]ccc23)cn1 [Example 107, trifluoroacetate salt]    4.8
5. N#CC[C@@H]([C@H]1CCN(c2scc(C#N)c2C#N)C1)n1cc(-c2ncnc3[nH]ccc23)cn1    20.0
6. COCc1cnc(N2CC[C@H]([C@H](CC#N)n3cc(-c4ncnc5[nH]ccc45)cn3)C2)c(C#N)n1 [Example 141, trifluoroacetate]    16.2
7. N#CC[C@@H]([C@H]1CCN(c2nc(F)c(F)cc2F)C1)n1cc(-c2ncnc3[nH]ccc23)cn1 [Example 67, trifluoroacetate salt]    5.6
8. N#CC[C@@H]([C@H]1CCN(c2cccc(C(F)F)c2C#N)C1)n1cc(-c2ncnc3[nH]ccc23)cn1 [Example 111, trifluoroacetate salt]    37.6
9. N#CCC(C1CCN(c2ccc3c(n2)S(=O)(=O)CC3)C1)n1ccc(-c2ncnc3[nH]ccc23)c1 (single isomer, unassigned) [34, enantiomer 2]    13.8

* * *

# Assayed Target: Jak2 (a.a. 828-1132) (Homo sapiens)
# Construct: Jak2 (a.a. 828-1132); His tag (N); made in house; host or cells: insect cells (baculovirus)
# Method Notes: In vitro JAK kinase assay (HTRF, phosphorylation of a biotinylated peptide), JAK2, reported as JAK2/JAK1 ratio
# Assay type: biochemical
# Experimental Parameters: Assay Conditions 1 mM ATP
Where a name gives a salt, the structure may show the parent alone.
Recorded JAK2/JAK1 IC50 ratio, one value per entry.
Measured Endpoint: JAK2/JAK1 IC50 ratio

1) COc1cccc2nc(N3CCC(C(CC#N)n4cc(-c5ncnc6[nH]ccc56)cn4)C3)oc12 (single isomer, unassigned)    7.7
2) N#CC[C@@H]([C@H]1CCN(c2ncc(CO)nc2C#N)C1)n1cc(-c2ncnc3[nH]ccc23)cn1 [Example 140, trifluoroacetate]    17.4
3) Cc1ccnc(N2CC[C@H]([C@H](CC#N)n3cc(-c4ncnc5[nH]ccc45)cn3)C2)c1C#N [Example 100, trifluoroacetate]    >7.4
4) CNC(=O)c1cc(N2CCC(C(CC#N)n3cc(-c4ncnc5[nH]ccc45)cn3)C2)ccn1 (single isomer, unassigned)    6.7
5) CSc1cccc(N2CCC(C(CC#N)n3cc(-c4ncnc5[nH]ccc45)cn3)C2)c1C#N (racemic)    7.1
6) Cn1ccnc(N2CCC(C(CC#N)n3cc(-c4ncnc5[nH]ccc45)cn3)C2)c1=O (racemic)    >8.7

* * *

Recorded IC50, one value per entry.
# Assayed Target: human JAK1 (a.a. 837-1142) (Homo sapiens, UniProt P23458)
# Construct: human JAK1 (a.a. 837-1142); His tag (N); made in house; host or cells: insect cells (baculovirus)
# Method Notes: In vitro JAK kinase assay (HTRF, phosphorylation of a biotinylated peptide), JAK1
# Assay type: biochemical
# Experimental Parameters: Assay Conditions 1 mM ATP
Measured Endpoint: IC50

1) N#Cc1nnccc1N1CC[C@H](C(CF)n2cc(-c3ncnc4[nH]ccc34)cn2)C1 (single isomer, unassigned)    < 0.05 µM
2) CN(C)S(=O)(=O)Nc1nccc(N2CCC(C(CC#N)n3cc(-c4ncnc5[nH]ccc45)cn3)C2)n1 (single isomer, unassigned)    < 0.05 µM
3) CNC(=O)c1cc(N2CCC(C(CC#N)n3cc(-c4ncnc5[nH]ccc45)cn3)C2)ccn1 (single isomer, unassigned)    < 0.05 µM

* * *

Recorded IC50, one value per entry.
# Assayed Target: human JAK1 (a.a. 837-1142) (Homo sapiens, UniProt P23458)
# Construct: human JAK1 (a.a. 837-1142); His tag (N); made in house; host or cells: insect cells (baculovirus)
# Method Notes: In vitro JAK kinase assay (HTRF, phosphorylation of a biotinylated peptide), JAK1
# Type: biochemical
# Experimental Parameters: Assay Conditions 1 mM ATP
Structures can show the parent of a compound that is named as a salt.
Measured Endpoint: IC50

1. N#CC[C@@H]([C@H]1CCN(c2cccc(F)c2C#N)C1)n1cc(-c2ncnc3[nH]ccc23)cn1 [Example 54, trifluoroacetate salt]    < 50 nM
2. N#CCC(n1cc(-c2ncnc3[nH]ccc23)cn1)C1(F)CCN(c2nc3cccnc3o2)C1 (single isomer, unassigned) [31, Step 4b, enantiomer 1]    100 to 500 nM
3. N#CC[C@@H]([C@H]1CCN(c2ccnc(C#N)c2C#N)C1)n1cc(-c2ncnc3[nH]ccc23)cn1 [Example 124, trifluoroacetate]    < 50 nM
4. N#CCC(C1CCN(c2scc(C#N)c2C#N)C1)n1ccc(-c2ncnc3[nH]ccc23)c1 (single isomer, unassigned) [81 enantiomer 2]    < 50 nM
5. N#CC[C@@H]([C@H]1CCN(c2ncnc(C(F)F)c2C#N)C1)n1cc(-c2ncnc3[nH]ccc23)cn1 [Example 110, trifluoroacetate salt]    < 50 nM
6. N#CC[C@@H]([C@H]1CCN(c2cncc(Cl)c2C#N)C1)n1cc(-c2ncnc3[nH]ccc23)cn1 [Example 64, trifluoroacetate salt]    < 50 nM
